test system: OVCAR-8 ovarian; experiment: NCI tumour cell line growth inhibition, 48 h
Give TGI for every item shown.
Value expressed in µM; do not type the unit.

Recorded TGI for CC(C)c1nc(Cl)nc(Cl)c1Cl , please?
2.45

Recorded TGI for O=C(O)c1c[nH]c2cc(OCc3ccccc3)ccc2c1=O , please?
35.3

Recorded TGI for CCOC(=O)C#Cc1c(C(=O)OCC)nnn1Cc1ccc(C(F)(F)F)cc1 , please?
15

Recorded TGI for CCOC(=O)c1c(SCCCN2CCCCC2)n(-c2ccccc2)c(=S)n(-c2ccccc2)c1=O , please?
33.6

Recorded TGI for CC1[C@@H]2CC=C3C4CCC5Cc6nc7c(nc6C[C@@]5(C)C4CC(=O)[C@]32CO[C@@]1(O)C(O)CC(C)(C)O)CC1CCC2C3=C[C@H]4O[C@@]5(O[C@@](C)(CO)C[C@@H]5O)C(C)[C@@]4(O)[C@]3(C)[C@@H](O)CC2[C@]1(C)C7 (some centres not stated) , please?
3.6

Recorded TGI for CC12C=C[C@]3(CC[C@@H]4[C@@](C)(CO)CCC[C@]4(C)C3CC1)C2 (some centres not stated) , please?
41.2

Recorded TGI for CC/C=C/c1cc2c(c3[nH]ccc13)[C@@H](C)CC2C (some centres not stated) (tested in a mixture with another compound) , please?
31.4

Recorded TGI for COc1ccc(-c2cn(-c3cccc(C(=O)/C=C/c4cc(OC)c(OC)c(OC)c4)c3)c(=O)[nH]2)cc1 , please?
15.3

The measured values listed here are drawn from PubChem BioAssay (NCI).
